The reported numbers originate from patent US20210301005A1.

# measured on: T1, human TGFβ3, mature dimeric form (human, UniProt P10600 301-412)
# T1 construct: Peprotech, expressed in E. coli; also called TGFb3
# T1 sequence: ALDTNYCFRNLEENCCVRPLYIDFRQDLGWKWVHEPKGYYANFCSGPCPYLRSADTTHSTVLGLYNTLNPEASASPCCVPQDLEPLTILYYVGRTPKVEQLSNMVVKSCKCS
# experimental protocol: BIAcore T200
measurement kind: Kd (pM)
Give the value in pM but do not write pM after it.

// field: Kd; key: h4A11.v7.4 (antibody, V domains shown) VH: EQQLQESGPGLVKPSETLSLTCTVTGFSLSSYTVNWVRQPAGKGLEWIGYISYGGSAYYASWANGRFTISKDSSKNQVSLKLSSVTAADTAVYFCARHMQVGGAPTGSMAAFDPWGPGTLVTVSS VL: EIVLTQSPGTLSLSPGERATLSCQSSQSVYNNNYLSWFQQKPGQPPRLLIYGASTLTSGVPDRFSGSGSGTDFTLTISRLEPEDFAVYYCAGGYSGSSDKYAFGGGTKVEIK ; value = 4.3

// field: Kd; key: h4A11.v7.7 (antibody, V domains shown) VH: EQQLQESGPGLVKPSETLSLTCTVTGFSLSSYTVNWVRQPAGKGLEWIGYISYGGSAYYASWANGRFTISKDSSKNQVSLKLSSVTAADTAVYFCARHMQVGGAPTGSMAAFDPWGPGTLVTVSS VL: EAVLTQSPGTLSLSPGERATLSCQSSQSVYNNNYLSWFQQKPGQPPRLLIYGASTLTSGIPDRFSGSGSGTDFTLTISRLEPEDFAVYYCAGGYSGSSDKYAFGGGTKVEIK ; value = 6.1

// field: Kd; key: h4A11.v7.9 (antibody, human IgG1, kappa, N297G, V domains shown) VH: EQQLQESGPGLVKPSETLSLTCTVTGFSLSSYTVNWIRQPAGKGLEWIGYISYGGSAYYASWANGRFTISKDSSKNQVSLKLSSVTAADTAVYFCARHMQVGGAPTGSMAAFDPWGPGTLVTVSS VL: EAVLTQSPGTLSLSPGERATLSCQSSQSVYNNNYLSWFQQKPGQPPRLLIYGASTLTSGVPDRFSGSGSGTDFTLTISRLEPEDFAVYYCAGGYSGSSDKYAFGGGTKVEIKR ; value = 5.7

// field: Kd; key: h4A11.v7.6 (antibody, V domains shown) VH: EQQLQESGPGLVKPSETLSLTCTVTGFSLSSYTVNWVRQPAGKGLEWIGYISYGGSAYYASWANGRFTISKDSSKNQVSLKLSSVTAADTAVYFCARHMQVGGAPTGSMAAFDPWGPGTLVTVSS VL: EAVLTQSPGTLSLSPGERATLSCQSSQSVYNNNYLSWFQQKPGQAPRLLIYGASTLTSGVPDRFSGSGSGTDFTLTISRLEPEDFAVYYCAGGYSGSSDKYAFGGGTKVEIK ; value = 6.5

// field: Kd; key: h4A11.v7.13 (antibody, human IgG1, kappa, N297G, V domains shown) VH: EQQLQESGPGLVKPSETLSLTCTVTGFSLSSYTVNWVRQPAGKGLEWIGYISYGGSAYYASWANGRFTISKDSSKNQFSLKLSSVTAADTAVYFCARHMQVGGAPTGSMAAFDPWGPGTLVTVSS VL: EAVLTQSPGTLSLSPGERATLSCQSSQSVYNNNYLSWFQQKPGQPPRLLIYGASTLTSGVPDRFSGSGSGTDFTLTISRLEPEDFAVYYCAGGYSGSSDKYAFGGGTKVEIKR ; value = 8.9
